Where these numbers come from: PubChem BioAssay AID2060624

Test system: 217524-143-R1-J4-PDC spheroids with HUVEC/MSC, viability
PROCEDURE DETAILS: Anticancer human tumor 217524-143-R1-J4-PDC patient-derived pancreatic carcinoma cell line growth inhibition [CLK]
PROTOCOL CONDITIONS: second compound 0.316 µM; first compound 0.316 µM; stronger effect = lower value
REPORTED PROPERTY: viability, T/C (%)
Response body: numeric value in %, unit text excluded.

Quote viability, T/C reported for Nc1ccn(C2OC(CO)C(O)C2(F)F)c(=O)n1 (centres undefined) + CNC(=O)c1ccc(Nc2nc(OC3CCCC3)c3c(-c4ccc5nc(C)oc5c4)c[nH]c3n2)c(OC)c1 please.
18.5

Quote viability, T/C reported for COC1C=CCC(C)C(C)S(=O)(=O)NC(=O)c2ccc3c(c2)N(CC2CCC21)CC1(CCCc2cc(Cl)ccc21)CO3 (centres undefined) + CNC(=O)c1ccc(Nc2nc(OC3CCCC3)c3c(-c4ccc5nc(C)oc5c4)c[nH]c3n2)c(OC)c1 please.
39.4

Quote viability, T/C reported for CCCS(=O)(=O)Nc1ccc(F)c(C(=O)c2c[nH]c3ncc(-c4ccc(Cl)cc4)cc23)c1F + CN1CCN(c2cc(C(=O)Nc3cc4cc(-c5cnn(C)c5)ccc4cn3)ccn2)CC1 please.
33.3

Quote viability, T/C reported for COc1ccc([C@@H](O)c2cc(-c3ncnc4cc(N5CCOCC5)ccc34)c(F)cc2Cl)nn1 + CNC(=O)c1ccc(Nc2nc(OC3CCCC3)c3c(-c4ccc5nc(C)oc5c4)c[nH]c3n2)c(OC)c1 please.
27.4

----------
Kindly supply the reported viability, T/C values for the records listed here.
Test system: 217524-143-R1-J4-PDC spheroids with HUVEC/MSC, viability
PROCEDURE DETAILS: Anticancer human tumor 217524-143-R1-J4-PDC cell line growth inhibition [CLK];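 note: spheroids exposed to agents for seven days before reading; 100% = DMSO vehicle control viability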
PROTOCOL CONDITIONS: second compound 0.316 µM; first compound 3.16 µM; stronger effect = lower value
Response body: numeric value in %, unit text excluded.

Quote viability, T/C reported for COc1cccc2c1C(=O)c1c(O)c3c(c(O)c1C2=O)CC(O)(C(=O)CO)CC3OC1CC(N)C(O)C(C)O1 (stereo not given) + CNC(=O)c1ccc(Nc2nc(OC3CCCC3)c3c(-c4ccc5nc(C)oc5c4)c[nH]c3n2)c(OC)c1 please.
2.83

Quote viability, T/C reported for CC(=O)O[C@H]1C(=O)[C@@]2(C)[C@H]([C@H](OC(=O)c3ccccc3)[C@]3(O)C[C@H](OC(=O)[C@H](O)[C@@H](NC(=O)c4ccccc4)c4ccccc4)C(C)=C1C3(C)C)[C@]1(OC(C)=O)CO[C@@H]1C[C@@H]2O + CN1CCN(c2cc(C(=O)Nc3cc4cc(-c5cnn(C)c5)ccc4cn3)ccn2)CC1 please.
11.7

Quote viability, T/C reported for COc1ccc([C@@H](O)c2cc(-c3ncnc4cc(N5CCOCC5)ccc34)c(F)cc2Cl)nn1 + CNC(=O)c1ccc(Nc2nc(OC3CCCC3)c3c(-c4ccc5nc(C)oc5c4)c[nH]c3n2)c(OC)c1 please.
13.3

Quote viability, T/C reported for CC(CO)NC(=O)c1cc(-c2ccc(Cl)cc2)nn(-c2cnn(C)c2)c1=O (stereo not given) + CNC(=O)c1ccc(Nc2nc(OC3CCCC3)c3c(-c4ccc5nc(C)oc5c4)c[nH]c3n2)c(OC)c1 please.
38.9

Quote viability, T/C reported for CCCS(=O)(=O)Nc1ccc(F)c(C(=O)c2c[nH]c3ncc(-c4ccc(Cl)cc4)cc23)c1F + CNC(=O)c1ccc(Nc2nc(OC3CCCC3)c3c(-c4ccc5nc(C)oc5c4)c[nH]c3n2)c(OC)c1 please.
59.2

Quote viability, T/C reported for O=c1[nH]cc(F)c(=O)[nH]1 + CNC(=O)c1ccc(Nc2nc(OC3CCCC3)c3c(-c4ccc5nc(C)oc5c4)c[nH]c3n2)c(OC)c1 please.
29.1

Quote viability, T/C reported for COC1C=CCC(C)C(C)S(=O)(=O)NC(=O)c2ccc3c(c2)N(CC2CCC21)CC1(CCCc2cc(Cl)ccc21)CO3 (stereo not given) + CN1CCN(c2cc(C(=O)Nc3cc4cc(-c5cnn(C)c5)ccc4cn3)ccn2)CC1 please.
27

Quote viability, T/C reported for C=CC(=O)N1CCN(c2nc(=O)n(-c3c(C)ccnc3C(C)C)c3nc(-c4c(O)cccc4F)c(F)cc23)C(C)C1 (stereo not given) + CN1CCN(c2cc(C(=O)Nc3cc4cc(-c5cnn(C)c5)ccc4cn3)ccn2)CC1 please.
31.1

Quote viability, T/C reported for Nc1ccccc1NC(=O)c1ccc(CNC(=O)OCc2cccnc2)cc1 + CNC(=O)c1ccc(Nc2nc(OC3CCCC3)c3c(-c4ccc5nc(C)oc5c4)c[nH]c3n2)c(OC)c1 please.
53.2

Quote viability, T/C reported for Nc1ccn(C2OC(CO)C(O)C2(F)F)c(=O)n1 (stereo not given) + CN1CCN(c2cc(C(=O)Nc3cc4cc(-c5cnn(C)c5)ccc4cn3)ccn2)CC1 please.
13.3

----------
Tested on: 217524-143-R1-J4-PDC spheroids with HUVEC/MSC, viability
PROCEDURE DETAILS: Anticancer human tumor 217524-143-R1-J4-PDC cell line growth inhibition [CLK];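 note: spheroids exposed to agents for seven days before reading; 100% = DMSO vehicle control viability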
PROTOCOL CONDITIONS: second compound 0.1 µM; first compound 1 µM; stronger effect = lower value
REPORTED PROPERTY: viability, T/C

Quote viability, T/C reported for O=C(c1cc(Cc2n[nH]c(=O)c3ccccc23)ccc1F)N1CCN(C(=O)C2CC2)CC1 + CNC(=O)c1ccc(Nc2nc(OC3CCCC3)c3c(-c4ccc5nc(C)oc5c4)c[nH]c3n2)c(OC)c1 please.
44.1%

Quote viability, T/C reported for CC1(C)CCC(CN2CCN(c3ccc(C(=O)NS(=O)(=O)c4ccc(NCC5CCOCC5)c([N+](=O)[O-])c4)c(Oc4cnc5[nH]ccc5c4)c3)CC2)=C(c2ccc(Cl)cc2)C1 + CNC(=O)c1ccc(Nc2nc(OC3CCCC3)c3c(-c4ccc5nc(C)oc5c4)c[nH]c3n2)c(OC)c1 please.
46.1%

Quote viability, T/C reported for Nc1ccccc1NC(=O)c1ccc(CNC(=O)OCc2cccnc2)cc1 + CNC(=O)c1ccc(Nc2nc(OC3CCCC3)c3c(-c4ccc5nc(C)oc5c4)c[nH]c3n2)c(OC)c1 please.
62.1%

Quote viability, T/C reported for CCc1c2c(nc3ccc(O)cc13)-c1cc3c(c(=O)n1C2)COC(=O)[C@]3(O)CC + CN1CCN(c2cc(C(=O)Nc3cc4cc(-c5cnn(C)c5)ccc4cn3)ccn2)CC1 please.
5.83%

Quote viability, T/C reported for CCN1CCN(Cc2ccc(Nc3ncc(F)c(-c4cc(F)c5nc(C)n(C(C)C)c5c4)n3)nc2)CC1 + CNC(=O)c1ccc(Nc2nc(OC3CCCC3)c3c(-c4ccc5nc(C)oc5c4)c[nH]c3n2)c(OC)c1 please.
36%

Quote viability, T/C reported for O=c1[nH]cc(F)c(=O)[nH]1 + CNC(=O)c1ccc(Nc2nc(OC3CCCC3)c3c(-c4ccc5nc(C)oc5c4)c[nH]c3n2)c(OC)c1 please.
35.6%

Quote viability, T/C reported for CCc1c2c(nc3ccc(O)cc13)-c1cc3c(c(=O)n1C2)COC(=O)[C@]3(O)CC + CNC(=O)c1ccc(Nc2nc(OC3CCCC3)c3c(-c4ccc5nc(C)oc5c4)c[nH]c3n2)c(OC)c1 please.
3.12%

Quote viability, T/C reported for CC(CO)NC(=O)c1cc(-c2ccc(Cl)cc2)nn(-c2cnn(C)c2)c1=O (centres undefined) + CN1CCN(c2cc(C(=O)Nc3cc4cc(-c5cnn(C)c5)ccc4cn3)ccn2)CC1 please.
51%

Quote viability, T/C reported for CC(=O)O[C@H]1C(=O)[C@@]2(C)[C@H]([C@H](OC(=O)c3ccccc3)[C@]3(O)C[C@H](OC(=O)[C@H](O)[C@@H](NC(=O)c4ccccc4)c4ccccc4)C(C)=C1C3(C)C)[C@]1(OC(C)=O)CO[C@@H]1C[C@@H]2O + CN1CCN(c2cc(C(=O)Nc3cc4cc(-c5cnn(C)c5)ccc4cn3)ccn2)CC1 please.
10.7%

Quote viability, T/C reported for COc1ccc([C@@H](O)c2cc(-c3ncnc4cc(N5CCOCC5)ccc34)c(F)cc2Cl)nn1 + CN1CCN(c2cc(C(=O)Nc3cc4cc(-c5cnn(C)c5)ccc4cn3)ccn2)CC1 please.
24.4%

Quote viability, T/C reported for O=C(c1cc(Cc2n[nH]c(=O)c3ccccc23)ccc1F)N1CCN(C(=O)C2CC2)CC1 + CN1CCN(c2cc(C(=O)Nc3cc4cc(-c5cnn(C)c5)ccc4cn3)ccn2)CC1 please.
58.5%

Quote viability, T/C reported for COC1C=CCC(C)C(C)S(=O)(=O)NC(=O)c2ccc3c(c2)N(CC2CCC21)CC1(CCCc2cc(Cl)ccc21)CO3 (centres undefined) + CN1CCN(c2cc(C(=O)Nc3cc4cc(-c5cnn(C)c5)ccc4cn3)ccn2)CC1 please.
61.4%

Quote viability, T/C reported for CC(CO)NC(=O)c1cc(-c2ccc(Cl)cc2)nn(-c2cnn(C)c2)c1=O (centres undefined) + CNC(=O)c1ccc(Nc2nc(OC3CCCC3)c3c(-c4ccc5nc(C)oc5c4)c[nH]c3n2)c(OC)c1 please.
51.3%

Quote viability, T/C reported for C=CC(=O)N1CCN(c2nc(=O)n(-c3c(C)ccnc3C(C)C)c3nc(-c4c(O)cccc4F)c(F)cc23)C(C)C1 (centres undefined) + CNC(=O)c1ccc(Nc2nc(OC3CCCC3)c3c(-c4ccc5nc(C)oc5c4)c[nH]c3n2)c(OC)c1 please.
49.9%
